system: P388 leukemia ip, CD2F1 mice, survival T/C; experiment: NCI In Vivo Anticancer Drug Screen. Data for tumor model P388 Leukemia (intraperitoneal) in CD2F1 (CDF1) mice; details: endpoint: median survival time; dose: 50.0 mg/kg/injection; schedule: Q01DX009 (ip); vehicle: saline with Tween-80
Inconclusive results and toxic doses are left out. Rule for the calls: active = survival T/C of 150% or more; inactive = T/C below 125% in these data.
Choose the fitting class; nothing outside y for active, n for inactive is accepted.

CC(C)C(=NC(C)(C)C)Nc1ccccc1Cl = n
CCOc1ccccc1C=C1c2ccccc2C(=O)c2ccccc21 = n
C/C=C/c1cc2c(c(=O)o1)C(=O)[C@@H](O)[C@H](C)O2 = n
O=C(CCl)N1CC2CCC(CC2)C1 = n
CCOn1nnc2ccccc21 = n

In this assay, the call recorded for CN(/N=C/c1ccc2c(c1)OCO2)C(=O)c1ccccc1N was what? n

In this assay, the call recorded for CCOC(=O)CN1CCCC(C(=O)CC2(O)C3(Cl)C4(Cl)C5(Cl)C(Cl)(Cl)C6(Cl)C4(Cl)C2(Cl)C6(Cl)C53Cl)C1 (stereo not given) was what? n

In this assay, the call recorded for CCCCN(CCCC)CCC(O)c1cc(-c2ccc(C(F)(F)F)cc2)nc(-c2ccc(C(F)(F)F)cc2)c1 (stereo not given) was what? n

In this assay, the call recorded for O=Cc1ccc([N+](=O)[O-])[nH]1 was what? n

In this assay, the call recorded for COc1cc2c(cc1OC)C13CCCC4(OCCO4)C1=CC2(C)O3 (stereo not given) was what? n

In this assay, the call recorded for CCCN(CCC)C(=O)c1ccc([N+](=O)[O-])cc1 was what? n

In this assay, the call recorded for O=c1oc(-c2ccc(Cl)cc2)nc2cc(Cl)ccc12 was what? n

In this assay, the call recorded for COc1cc(Br)cc(OC)c1N was what? n

// provenance: PubChem BioAssay AID330
